- system_tested: thrombin (UniProt P00734;P00734 328-363;364-622)
- assay_method_text: kinetic exclusion assay (KinExA), n-curve analysis; 1:1 model; FA 10 pM, 50 pM, 1 nM; fitted FA activity ~47%; 1:1 fit deviates at high thrombin; PBS with 0.02% sodium azide and 1 mg/mL BSA; incubation 2 h (50 pM, 1 nM FA) or 6.5 h (10 pM FA); thrombin 5 pM to 1 uM; pH and temperature not stated
readout: Kd
The answer should read as a number with its unit following.

Query: I'd like to know its Kd. The binder in question is AGTCCGTGGTAGGGCAGGTTGGGGTGACT (structured_DNA) [29-nt thrombin aptamer (Tasset et al.), fluorescent aptamer FA]
Result: 0.298 nM
